Test system: ATP;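 also: ATP exposure 15 min at 22 °C before imaging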
Experiment: switch fluorescence ratio, 500 uM ATP over buffer (Cy3 cluster intensity, sum of 5 cycles each) (fold (ratio)); higher = stronger signal-on switching upon ATP binding; sequences stand for … in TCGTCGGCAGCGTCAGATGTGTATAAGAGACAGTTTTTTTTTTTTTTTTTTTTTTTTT…TC
Details: aptamer strand: ATP DNA aptamer (quencher-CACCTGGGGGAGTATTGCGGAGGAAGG + anchor), 100 nM annealed; ATP concentration: 500 uM
I'd appreciate it if you could supply switch fluorescence ratio values for the items below.
Kindly provide the number alone.

For reference, reported switch fluorescence ratio for GGGGATTTGT stands at 0.994

For reference, reported switch fluorescence ratio for TATAACTTAA stands at 1.03

For reference, reported switch fluorescence ratio for CAATTATATG stands at 0.996

For reference, reported switch fluorescence ratio for CGGAAAAAAT stands at 1.19

For reference, reported switch fluorescence ratio for GAAGAAGTAA stands at 1.03

For reference, reported switch fluorescence ratio for CGTTGGCGTG stands at 0.947

For reference, reported switch fluorescence ratio for AATGAACATG stands at 0.978

For reference, reported switch fluorescence ratio for ATGATACTTC stands at 0.997

For reference, reported switch fluorescence ratio for AGTTCTGGTT stands at 0.965

For reference, reported switch fluorescence ratio for ATGAGGCTTT stands at 1.02

For reference, reported switch fluorescence ratio for AAGGATAGAT stands at 0.985

For reference, reported switch fluorescence ratio for TATAAACCGC stands at 1.22

For reference, reported switch fluorescence ratio for GGGGCGGTGC stands at 1.03

For reference, reported switch fluorescence ratio for AATGGGTCAT stands at 1

For reference, reported switch fluorescence ratio for ATATGCCGAT stands at 0.996

For reference, reported switch fluorescence ratio for AGTGACGTAC stands at 1.77

###

Tested on: ATP;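 also: ATP exposure 15 min at 22 °C before imaging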
Assay: switch fluorescence ratio, 500 uM ATP over buffer (Cy3 cluster intensity, sum of 5 cycles each) (fold (ratio)); higher = stronger signal-on switching upon ATP binding; sequences stand for … in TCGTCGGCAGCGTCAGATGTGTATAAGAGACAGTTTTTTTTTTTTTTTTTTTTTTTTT…TC
Details: aptamer strand: ATP DNA aptamer (quencher-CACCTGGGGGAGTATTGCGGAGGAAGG + anchor), 100 nM annealed; ATP concentration: 500 uM
MEASURED ENDPOINT: switch fluorescence ratio
Kindly provide the number alone.

For reference, reported switch fluorescence ratio for TTCCAAGATC stands at 1.18

For reference, reported switch fluorescence ratio for TATTTGGCTA stands at 0.983

For reference, reported switch fluorescence ratio for TCAGGGGGTT stands at 1.05

For reference, reported switch fluorescence ratio for CTAGAGGGTA stands at 0.989

For reference, reported switch fluorescence ratio for TAGCCCTGTG stands at 1.05

For reference, reported switch fluorescence ratio for ATGTGTATTT stands at 1.03

For reference, reported switch fluorescence ratio for TCTGTGTAGC stands at 1

For reference, reported switch fluorescence ratio for ATGCGGTCCT stands at 1.02

For reference, reported switch fluorescence ratio for TTAAATTGGT stands at 0.99

For reference, reported switch fluorescence ratio for GGGTACAGAT stands at 0.986

For reference, reported switch fluorescence ratio for GCATTAGTTT stands at 1.04

For reference, reported switch fluorescence ratio for TCTTCTAA stands at 0.997

For reference, reported switch fluorescence ratio for CAGGAATACT stands at 3.61

For reference, reported switch fluorescence ratio for GGGGTTGGCA stands at 1.03

For reference, reported switch fluorescence ratio for ATTTTTGCTT stands at 0.994

For reference, reported switch fluorescence ratio for AGGGACTGTG stands at 1.01

For reference, reported switch fluorescence ratio for TTAAGATTCC stands at 1.1

For reference, reported switch fluorescence ratio for GGGAGTTAGA stands at 0.988

For reference, reported switch fluorescence ratio for AAACACTGGG stands at 0.964

For reference, reported switch fluorescence ratio for GGGGGCGGCG stands at 1

For reference, reported switch fluorescence ratio for GACTCAGACA stands at 1.03

For reference, reported switch fluorescence ratio for GGCTAGCCTA stands at 1.01
